Assay: physchem
Type: physicochemical
Details: pH 7.4, aqueous buffer, kinetic from dmso stock, Solubility
Description: Table 12 illustrates the kinetic solubility of complexes 4^2+ and 4^4+ were tested and compared to a soluble positive control drug (Nicardipine). Both compounds passed the DMPK analysis with an optimal solubility and kinetic stability.
MEASURED_PROPERTY: solubility (µM)
Kindly provide the numeric value in µM only, without the unit symbol.

Dear colleague, I am looking for the recorded solubility of the following compound: COC(=O)C1=C(C)NC(C)=C(C(=O)OCCN(C)Cc2ccccc2)C1c1cccc([N+](=O)[O-])c1 (stereo not shown)
20.8

###

test: physchem; type: physicochemical; details: pH 7.4, aqueous buffer, kinetic from dmso stock
MEASURED_PROPERTY: solubility
Answer with the number, then the unit.

Request the reported solubility associated with COC(=O)C1=C(C)NC(C)=C(C(=O)OCCN(C)Cc2ccccc2)C1c1cccc([N+](=O)[O-])c1 (stereo not shown)
20.8 µM

These entries and their values trace back to patent US12404291B2.
